target: UniProt:P07308; test: Inhibition of SCD1 in Wistar rat liver microsomes using [14C] stearic acid as substrate incubated for 10 mins prior to substrate addition measured after 1 hr by chromatographic analysis; parameters: species or system Microsome
result type: IC50 (µM)
The reply should be a number in µM, with the unit left off.

IC50 for `CC(C)CCNC(=O)c1ccc2nc(-c3ccc(Oc4ccccc4)cc3)[nH]c2c1` ?
21.6

IC50 for `O=C(NCc1cccs1)c1ccc2nc(-c3ccc(C(=O)c4ccccc4C(F)(F)F)cc3)[nH]c2c1` ?
0.099

IC50 for `CC(C)CCNC(=O)c1ccc2[nH]c(-c3ccc(Oc4ccccc4Cl)cc3)nc2c1` ?
2.72

IC50 for `O=C(Cc1cccs1)Nc1ccc2nc(N3CCN(C(=O)c4ccccc4C(F)(F)F)CC3)[nH]c2c1` ?
3.2

IC50 for `O=C(c1ccccc1)c1ccc2nc(-c3ccc(Oc4ccccc4)cc3)[nH]c2c1` ?
15.8

IC50 for `O=C(NCc1ccccc1)c1ccc2nc(-c3ccc(Oc4ccccc4)cc3)[nH]c2c1` ?
7.81

IC50 for `O=C(NCc1cccc(C(F)(F)F)c1)c1ccc2[nH]c(-c3ccc(Oc4ccccc4)cc3)nc2c1` ?
11.8

IC50 for `O=C(NCC1CC1)c1ccc2[nH]c(-c3ccc(Oc4ccccc4)cc3)nc2c1` ?
16.6

IC50 for `O=C(NCCC1CC1)c1ccc2nc(-c3ccc(Oc4ccccc4C(F)(F)F)cc3)[nH]c2c1` ?
0.539

IC50 for `CCn1c(COCc2ccccc2)nc2cc(C(=O)NCCc3ccc(O)cc3)ccc21` ?
5

IC50 for `O=C(CCc1ccccc1)Nc1ccc(N2CCN(C(=O)c3ccccc3C(F)(F)F)CC2)nc1` ?
2.26

IC50 for `O=C(NCCCc1ccccc1)c1ccc2nc(-c3ccc(Oc4ccccc4)cc3)[nH]c2c1` ?
28.3

IC50 for `O=C(NCCC1CC1)c1ccc2nc(-c3ccc(Oc4ccccc4Cl)cc3)[nH]c2c1` ?
0.966

IC50 for `O=C(NCc1cccs1)c1ccc2nc(-c3ccc(Oc4ccccc4)cc3)[nH]c2c1` ?
3.76

IC50 for `O=C(NCc1nccs1)c1ccc2nc(-c3ccc(Oc4ccccc4)cc3)[nH]c2c1` ?
6.51

IC50 for `O=C(NCc1nccs1)c1ccc2nc(-c3ccc(Oc4ccccc4Cl)cc3)[nH]c2c1` ?
0.115

IC50 for `CC(C)CCNC(=O)c1ccc2nc(-c3ccc(Oc4ccccc4C(F)(F)F)cc3)[nH]c2c1` ?
0.434

IC50 for `O=C(NCc1nccs1)c1ccc2[nH]c(-c3ccc(C(=O)c4ccccc4C(F)(F)F)cc3)nc2c1` ?
0.078

IC50 for `CNC(=O)c1ccc2nc(-c3ccc(Oc4ccccc4C(F)(F)F)cc3)[nH]c2c1` ?
27.2

IC50 for `O=C(NCc1ccc(Cl)s1)c1ccc2nc(-c3ccc(Oc4ccccc4C(F)(F)F)cc3)[nH]c2c1` ?
0.142

IC50 for `CC(C)CCNC(=O)c1ccc2nc(-c3ccc(C(=O)c4ccccc4C(F)(F)F)cc3)[nH]c2c1` ?
3.86

IC50 for `O=C(NCc1ccc(Cl)s1)c1ccc2[nH]c(-c3ccc(C(=O)c4ccccc4C(F)(F)F)cc3)nc2c1` ?
0.136

----------
Biological target: Acyl-CoA desaturase 1 (Rattus norvegicus, UniProt P07308)
Sequence (P07308 whole entry): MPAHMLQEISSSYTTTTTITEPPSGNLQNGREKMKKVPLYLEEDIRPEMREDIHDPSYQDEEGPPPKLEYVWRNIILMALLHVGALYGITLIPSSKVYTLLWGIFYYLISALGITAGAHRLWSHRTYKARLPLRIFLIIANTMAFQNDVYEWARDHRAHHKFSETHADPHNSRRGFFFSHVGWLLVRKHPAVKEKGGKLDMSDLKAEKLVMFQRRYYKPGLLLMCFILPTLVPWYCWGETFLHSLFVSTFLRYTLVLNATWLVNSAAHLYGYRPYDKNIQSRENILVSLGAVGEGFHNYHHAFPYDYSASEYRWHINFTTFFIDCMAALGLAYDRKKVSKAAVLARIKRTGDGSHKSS
Test: Inhibition of SCD1 in Wistar rat liver microsomes using [14C] stearic acid as substrate incubated for 10 mins prior to substrate addition measured after 1 hr by chromatographic analysis
Design: species or system Microsome
So I've got a bunch of compounds here, and I need their IC50 values.

IC50 for `O=C(c1ccccc1)c1ccc2nc(-c3ccc(-c4ccccc4)cc3)[nH]c2c1` ?
> 100 µM

IC50 for `O=C(c1ccccc1)c1ccc2nc(-c3ccc(C(=O)c4ccccc4C(F)(F)F)cc3)[nH]c2c1` ?
> 100 µM

IC50 for `O=C(NCCCc1ccccc1)c1ccc2nc(-c3ccc(Oc4ccccc4C(F)(F)F)cc3)[nH]c2c1` ?
> 100 µM
